system: Spontaneously Hypertensive Rats; assay: Diuretic activity in spontaneously hypertensive rats; type: in vivo, male spontaneously hypertensive rats of Okamoto strain; conditions: 100 mg/kg by gavage, 0-5 hour urine
experimental.readout: Potassium (urinary) (MEQ/5 Hours)
Kindly provide the numeric value in MEQ/5 Hours only, without the unit symbol.

Query :: For the compound C#CCOC(=O)N=P1(c2ccccc2)c2ccccc2Oc2ccccc21 , what Potassium (urinary) is on record?
Result :: 0.61

Query :: Quick one: O=C(N=P1(c2ccccc2)c2ccccc2Oc2ccccc21)OCC1CC1
Result :: 0.75

Query :: Quick one: N=P1(c2ccccc2)c2ccccc2Oc2ccccc21 [10,10-Dihydro-10-imino-10-phenyl-10H-phenoxaphosphine, bis(t]
Result :: 0.66

Query :: Quick one: O=C(N=P1(c2ccccc2)c2ccccc2Oc2ccccc21)OCc1ccncc1
Result :: 0.40

Query :: Quick one: CCOC(=O)N=P1(c2ccccc2)c2ccccc2Oc2ccccc21
Result :: 0.49

Query :: Quick one: O=C(N=P1(c2ccccc2)c2ccccc2Oc2ccccc21)OC1CCOC1 (stereo not shown)
Result :: 0.73

Query :: Quick one: O=C(N=P1(c2ccccc2)c2ccccc2Oc2ccccc21)OCc1cccnc1
Result :: 0.59

Query :: Quick one: COC(=O)N=P1(c2ccccc2)c2ccccc2Oc2ccccc21
Result :: 0.74

Query :: Quick one: O=C(N=P1(c2ccccc2)c2ccccc2Oc2ccccc21)OCc1ccccc1
Result :: 0.56

Query :: Quick one: C=CCOC(=O)N=P1(c2ccccc2)c2ccccc2Oc2ccccc21
Result :: 0.61

* * *

test system: Spontaneously Hypertensive Rats; assay: Diuretic activity in spontaneously hypertensive rats; assay type: in vivo, male spontaneously hypertensive rats of Okamoto strain; settings: 100 mg/kg by gavage, 0-5 hour urine
Kindly supply the reported Potassium (urinary) values for the records listed here.
Kindly provide the numeric value in MEQ/5 Hours only, without the unit symbol.

Query :: For the molecule CC(C)OC(=O)N=P1(c2ccccc2)c2ccccc2Oc2ccccc21 , what Potassium (urinary) is on record?
Result :: 0.66

Query :: Quick one: O=C(N=P1(c2ccccc2)c2ccccc2Oc2ccccc21)OC1CCCC1
Result :: 0.60

Query :: Quick one: N=P1(c2ccccc2)c2ccccc2Oc2ccccc21 [10,10-Dihydro-10-imino-10-phenyl-10H-phenoxaphosphine, sulfa]
Result :: 0.18

Query :: Quick one: CC(C)COC(=O)N=P1(c2ccccc2)c2ccccc2Oc2ccccc21
Result :: 0.64

Data provenance is patent US4777290A.
